# MEASURED ON: GABA A receptor alpha-1/beta-1/gamma-2 (Homo sapiens) (UniProt P14867+P18507+P18505)
# EXPERIMENT DESCRIPTION: Modulation of human recombinant GABA-A alpha1beta1gamma2L receptor expressed in Xenopus laevis oocytes assessed as effect on GABA-induced chloride current at 10 uM incubated 60 seconds before addition of GABA measured after 30 seconds at holding potential -70 mV by two-microelectrode voltage clamp technique relative to control
# Type: cell-based
# STUDY CONDITIONS: Oocyte
RECORDED ENDPOINT: Activity

1. CCOC(=O)c1ncn2c1CN=C(c1ccc(Cl)cc1)c1ccccc1-2 :: -18%
2. CCOC(=O)c1ncn2c1CN=C(c1ccc(C)cc1)c1ccccc1-2 :: 8.3%
3. CCOC(=O)c1ncn2c1CN=C(c1cccc([N+](=O)[O-])c1)c1cc(F)ccc1-2 :: -3.3%
4. CCOC(=O)c1ncn2c1CN=C(c1ccc(F)cc1)c1cc(F)ccc1-2 :: 6.5%

====

Listed compounds paired with reported Activity
# MEASURED ON: GABA A receptor alpha-1/beta-1/gamma-2 (Homo sapiens) (UniProt P14867+P18507+P18505)
# EXPERIMENT DESCRIPTION: Modulation of human recombinant GABA-A alpha1beta1gamma2L receptor expressed in Xenopus laevis oocytes assessed as effect on GABA-induced chloride current at 1 uM incubated 60 seconds before addition of GABA measured after 30 seconds at holding potential -70 mV by two-microelectrode voltage clamp technique relative to control
# Type: cell-based
# STUDY CONDITIONS: Oocyte
RECORDED ENDPOINT: Activity (%)

1) CCOC(=O)c1ncn2c1CN=C(c1ccc(C)cc1)c1ccccc1-2 :: 0
2) CCOC(=O)c1ncn2c1CN=C(c1ccc(Cl)cc1)c1ccccc1-2 :: -7
3) CCOC(=O)c1ncn2c1CN=C(c1ccc(F)cc1)c1cc(F)ccc1-2 :: -7.5
4) CCOC(=O)c1ncn2c1CN=C(c1cccc([N+](=O)[O-])c1)c1cc(F)ccc1-2 :: 10

====

# Species: Bos taurus
# EXPERIMENT DESCRIPTION: Ratio of Ki for central benzodiazepine receptor in bovine cortical membrane to Ki for central benzodiazepine receptor in bovine cortical membrane in presence of 50 uM GABA
# Assay type: cell membranes
Listed molecules paired with reported Ratio Ki
RECORDED ENDPOINT: Ratio Ki

1. CCOC(=O)c1ncn2c1CN=C(c1ccc(F)cc1)c1cc(F)ccc1-2 :: 1
2. CCOC(=O)c1ncn2c1CN=C(c1cccc3ccccc13)c1cc(Cl)ccc1-2 :: 1.3
3. CCOC(=O)c1ncn2c1CN=C(c1ccc(Cl)cc1)c1cc(Cl)ccc1-2 :: 1.3
4. CCOC(=O)c1ncn2c1CN=C(c1ccc(Cl)cc1)c1ccccc1-2 :: 0.84
5. O=C1OCCC2N=C(c3ccccc3)c3ccccc3-n3cnc1c32 (centres undefined) :: 0.95
6. CCOC(=O)c1ncn2c1CN=C(c1ccc(OC)cc1)c1ccccc1-2 :: 0.78
7. CCOC(=O)c1ncn2c1CN=C(c1cccc([N+](=O)[O-])c1)c1cc(Cl)ccc1-2 :: 0.99
8. CN1C(=O)CN=C(c2ccccc2F)c2cc([N+](=O)[O-])ccc21 :: 1.68
9. CCOC(=O)c1ncn2c1C(C)N=C(c1ccc(F)cc1)c1cc(F)ccc1-2 (centres undefined) :: 1.19
10. CCOC(=O)c1ncn2c1CN=C(c1ccc(C)cc1)c1cc(Cl)ccc1-2 :: 1.05
11. CCOC(=O)c1ncn2c1CN=C(c1ccc(F)cc1)c1ccccc1-2 :: 0.77
12. CCOC(=O)c1ncn2c1CN=C(c1ccc(C)cc1)c1ccccc1-2 :: 0.97
13. CCOC(=O)c1ncn2c1CN=C(c1ccc(F)cc1)c1cc(Cl)ccc1-2 :: 1.25
14. CCOC(=O)c1ncn2c1C(C)N=C(c1ccccc1)c1ccccc1-2 (centres undefined) :: 1.3
